measuredOn: T1, cynomolgus monkey IL-33 expressed with a C-terminal hexahistidine tag (cynomolgus monkey)
T1 construct: also called MfIL-33-6His; Mf-IL-33-6His
T1 chain: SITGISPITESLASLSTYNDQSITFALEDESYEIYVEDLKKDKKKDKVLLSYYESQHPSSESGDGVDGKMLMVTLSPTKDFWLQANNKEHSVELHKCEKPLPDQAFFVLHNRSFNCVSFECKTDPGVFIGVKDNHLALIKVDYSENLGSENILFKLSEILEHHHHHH
measurementDescription: SPR 25C pH7.4, mAb captured
Hi there, I'd appreciate the recorded kon for every entry that follows.

## Input Any idea what its kon is? The binder is H4H9662P (antibody, V domains shown, Human IgG4 Fc (H4H)) VH: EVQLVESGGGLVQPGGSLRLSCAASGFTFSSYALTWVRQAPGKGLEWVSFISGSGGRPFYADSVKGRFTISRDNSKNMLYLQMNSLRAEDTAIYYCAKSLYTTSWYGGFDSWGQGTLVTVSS VL: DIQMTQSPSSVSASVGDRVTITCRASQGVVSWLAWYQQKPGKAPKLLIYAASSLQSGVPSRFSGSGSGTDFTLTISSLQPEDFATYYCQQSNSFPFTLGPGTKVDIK
## Output 353000 M⁻¹ s⁻¹

## Input Any idea what its kon is? The binder is H4H9676P (antibody, human IgG4, V domains shown, Human IgG4 Fc (H4H)) VH: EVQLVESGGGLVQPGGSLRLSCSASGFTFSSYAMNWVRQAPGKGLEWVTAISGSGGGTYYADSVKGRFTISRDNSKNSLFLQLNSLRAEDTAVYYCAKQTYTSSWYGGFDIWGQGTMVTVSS VL: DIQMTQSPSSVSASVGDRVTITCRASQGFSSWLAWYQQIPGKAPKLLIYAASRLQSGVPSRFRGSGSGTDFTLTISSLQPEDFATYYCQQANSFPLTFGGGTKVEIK
## Output 852000 M⁻¹ s⁻¹

## Input Any idea what its kon is? The binder is H4H9672P (antibody, human IgG4, V domains shown, Human IgG4 Fc (H4H)) VH: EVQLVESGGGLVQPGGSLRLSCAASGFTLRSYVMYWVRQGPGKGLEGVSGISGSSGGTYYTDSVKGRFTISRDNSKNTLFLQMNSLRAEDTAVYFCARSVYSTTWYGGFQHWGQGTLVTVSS VL: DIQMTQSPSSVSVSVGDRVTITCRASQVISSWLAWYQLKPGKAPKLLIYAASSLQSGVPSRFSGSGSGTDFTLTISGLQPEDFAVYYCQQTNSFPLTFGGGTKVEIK
## Output 437000 M⁻¹ s⁻¹

## Input Any idea what its kon is? The binder is H4H9660P (antibody, human IgG4, V domains shown, Human IgG4 Fc (H4H)) VH: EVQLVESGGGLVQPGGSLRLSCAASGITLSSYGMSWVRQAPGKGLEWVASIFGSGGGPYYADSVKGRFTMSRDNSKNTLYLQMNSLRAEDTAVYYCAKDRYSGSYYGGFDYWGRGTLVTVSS VL: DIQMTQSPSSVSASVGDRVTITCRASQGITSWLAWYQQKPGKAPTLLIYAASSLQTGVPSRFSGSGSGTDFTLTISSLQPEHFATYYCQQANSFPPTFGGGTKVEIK
## Output 426000 M⁻¹ s⁻¹

## Input Any idea what its kon is? The binder is H4H9675P (antibody, human IgG4, V domains shown, Human IgG4 Fc (H4H)) VH: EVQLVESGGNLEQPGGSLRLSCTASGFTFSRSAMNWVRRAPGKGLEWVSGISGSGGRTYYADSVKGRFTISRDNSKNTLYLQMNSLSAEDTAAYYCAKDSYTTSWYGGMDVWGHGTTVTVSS VL: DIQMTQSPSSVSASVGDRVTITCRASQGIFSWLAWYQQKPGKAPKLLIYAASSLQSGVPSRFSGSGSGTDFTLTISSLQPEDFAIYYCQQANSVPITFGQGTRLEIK
## Output 506000 M⁻¹ s⁻¹

## Input Any idea what its kon is? The binder is H1M9568N (antibody, mouse IgG1, V domains shown, Human variable domains, mouse IgG1 Fc (H1M)) VH: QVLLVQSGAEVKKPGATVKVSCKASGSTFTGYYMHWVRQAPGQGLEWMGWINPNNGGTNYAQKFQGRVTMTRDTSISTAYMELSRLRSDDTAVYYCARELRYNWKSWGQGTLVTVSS VL: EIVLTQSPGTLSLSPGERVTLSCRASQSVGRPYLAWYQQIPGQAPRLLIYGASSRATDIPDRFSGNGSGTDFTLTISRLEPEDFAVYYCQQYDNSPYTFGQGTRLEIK
## Output 244000 M⁻¹ s⁻¹
